- test_protocol: Cytotoxicity against mouse B16F10 cells assessed as cell viability at 5 uM after 24 hrs by MTT assay relative to control
- Assay type: cell-based, B16-F10
- settings: read-out: Activity
outcome_measure: viability at 24 h, 5 µM (%)
API: value field is a number in %; no unit string.

Exam item: Indicate the recorded viability at 24 h, 5 µM value for this molecule: O=C1ON=C(c2ccccc2)/C1=C/c1ccc(O)c(Br)c1
Marked response: 100

====

- test_protocol: Cytotoxicity against mouse B16F10 cells assessed as cell viability at 10 uM after 24 hrs by MTT assay relative to control
- Format: cell-based, B16-F10
- settings: read-out: Activity
outcome_measure: viability at 24 h, 10 µM

Exam item: State, in one line, measured viability at 24 h, 10 µM of O=C1ON=C(c2ccccc2)/C1=C/c1ccc(O)c(Br)c1
Marked response: 98.7%
